Test system: velvetleaf (Abutilon theophrasti)
measurement protocol: Test G Pre-Emergence Protocol
Format: in vivo
test context: Abutilon theophrasti, pre-emergence, 312 h, 250 g ai/ha, evaluated after 13 days, read-out: Velvetleaf damage rating (100=total damage to plant; 0=no damage to plant)
measurement kind: pest or weed control at 250 g/ha (%)
Reply with just the number (in %).

// below: answered compounds
{"compound": "CN1C[C@@H](c2ccc(C(F)(F)F)cc2)[C@H](C(=O)Nc2ccccc2C#N)C1=O (racemic)", "observed result": 20}
{"compound": "Cc1c(Cl)cccc1NC(=O)[C@@H]1C(=O)N(C)C[C@H]1c1ccc(C(F)(F)F)cc1 (racemic)", "observed result": 20}

Let's switch to this compound now.
Record Cc1cc([C@H]2CN(C)C(=O)[C@@H]2C(=O)Nc2cccc(F)n2)cc(C(F)(F)F)c1 (racemic) : what is its pest or weed control at 250 g/ha with velvetleaf (Abutilon theophrasti)?
20

* * *

Below: a set of entries, each annotated with reported pest or weed control at 500 g/ha.
Test system: ragweed (common ragweed, Ambrosia elatior)
measurement protocol: Test A preemergence
Assay type: in vivo
test context: Ambrosia artemisiifolia, pre-emergence, 240 h, 500 g ai/ha, Preemergence, visual injury vs untreated controls after approximately 10 d; read-out: Ragweed plant response rating (0 to 100 scale where 0 is no effect and 100 is complete control)
Reply with just the number (in %).

{"smiles str": "O=C1NC[C@H](c2cc(F)c(C(F)(F)F)c(F)c2)[C@H]1C(=O)Nc1cccc(F)c1F", "experimental target": "ragweed (common ragweed, Ambrosia elatior)", "measurement kind": "pest or weed control at 500 g/ha", "observed result": 60}
{"smiles str": "COc1c(F)ccc([C@H]2CN(C)C(=O)[C@@H]2C(=O)Nc2ccccc2C(F)(F)F)c1Cl", "experimental target": "ragweed (common ragweed, Ambrosia elatior)", "measurement kind": "pest or weed control at 500 g/ha", "observed result": 0}

Let's switch to this compound now.
Record CN1C[C@H](c2cccc(COC(F)F)c2)[C@@H](C(=O)Nc2cccc(F)c2F)C1=O : what is its pest or weed control at 500 g/ha with ragweed (common ragweed, Ambrosia elatior)?
90

* * *

Test system: ducksalad (Heteranthera limosa)
measurement protocol: Test B flooded paddy test
Assay type: in vivo
test context: Flood, 250 g ai/ha; 0 to 100 scale where 0 is no effect and 100 is complete control; 13 to 15 d
Below: a set of entries, each annotated with reported Plant response rating, Ducksalad.
Number, no unit, nothing else.

{"compound": "O=C(Nc1ccccc1F)C1C(=O)N(c2ccc([N+](=O)[O-])cc2)CC1c1cccc(C(F)(F)F)c1 (stereo not drawn)", "observed result": 30}
{"compound": "C=CCN1CC(c2cccc(C(F)(F)F)c2)C(C(=O)Nc2ccccc2F)C1=O (stereo not drawn)", "observed result": 50}
{"compound": "Cc1ccc(C2CNC(=O)C2C(=O)Nc2ccc(F)cc2F)cc1F (racemic)", "observed result": 100}
{"compound": "O=C1NCC(c2csc(Br)c2)C1C(=O)Nc1ccccc1F (stereo not drawn)", "observed result": 100}
{"compound": "O=C1NCC(c2ccsc2Br)C1C(=O)Nc1cccc(F)c1F (stereo not drawn)", "observed result": 65}

Can you look up the measured Plant response rating, Ducksalad of CS(=O)(=O)c1ccccc1NC(=O)C1C(=O)NCC1c1ccc(C2CC2)cc1 (racemic) for me?
70

* * *

System: velvetleaf (Abutilon theophrasti)
measurement protocol: Test G Post-Emergence Protocol
Type: in vivo
test context: Abutilon theophrasti, post-emergence, 312 h, 15.625 g ai/ha, evaluated after 13 days (100=total damage to plant; 0=no damage to plant), read-out: Velvetleaf damage rating
measurement kind: pest or weed control at 15.625 g/ha (%)
Reply with just the number (in %).

// below: answered compounds
{"compound": "CN1C[C@@H](c2ccc(C(F)(F)F)nc2)[C@H](C(=O)Nc2cccc(F)n2)C1=O (racemic) [Compound 1491]", "observed result": 0}
{"compound": "CN1C[C@@H](c2ccc(C(F)(F)F)cc2)[C@H](C(=O)Nc2ccc(F)nc2)C1=O (racemic) [Compound 1555]", "observed result": 0}
{"compound": "CN1C[C@@H](c2ccc(C(F)(F)F)cc2)[C@H](C(=O)Nc2ncc(Cl)s2)C1=O (racemic) [Compound 1569]", "observed result": 0}

Can you look up the measured pest or weed control at 15.625 g/ha of COC(=O)c1cc([C@H]2CN(C)C(=O)[C@@H]2C(=O)Nc2ccccc2F)ccc1F (racemic) [Compound 1682] for me?
0

Can you look up the measured pest or weed control at 15.625 g/ha of CN1C[C@H](c2cccc3c2OC(F)(F)O3)[C@@H](C(=O)Nc2ccccc2F)C1=O (racemic) [Compound 1465] for me?
10

Can you look up the measured pest or weed control at 15.625 g/ha of Cc1nccc(NC(=O)[C@@H]2C(=O)N(C)C[C@H]2c2ccc(C(F)(F)F)cc2)c1C (racemic) [Compound 1630] for me?
0

Can you look up the measured pest or weed control at 15.625 g/ha of CN1C[C@@H](c2ccc(C(F)(F)F)cc2)[C@H](C(=O)Nc2ccc(Cl)cc2F)C1=O (racemic) [Compound 1602] for me?
0

Can you look up the measured pest or weed control at 15.625 g/ha of CN1C[C@H](c2ccc(C(F)(F)F)cc2)[C@@H](C(=O)Nc2cccc3c2C(=O)OC3)C1=O (racemic) [Compound 1669] for me?
0

Can you look up the measured pest or weed control at 15.625 g/ha of CN1C[C@@H](c2ccc(C(F)(F)F)cc2)[C@H](C(=O)Nc2nccc(=O)[nH]2)C1=O (racemic) [Compound 1622] for me?
0

Can you look up the measured pest or weed control at 15.625 g/ha of CN1C[C@@H](c2ccc(CO)cc2)[C@H](C(=O)Nc2cccc(F)c2F)C1=O (racemic) [Compound 1820] for me?
0

Can you look up the measured pest or weed control at 15.625 g/ha of CN1C[C@H](c2ccc(C(F)(F)F)cc2)[C@@H](C(=O)Nc2cnccc2S(C)(=O)=O)C1=O (racemic) [Compound 1746] for me?
0

Can you look up the measured pest or weed control at 15.625 g/ha of CN1C[C@H](c2ccc(C(F)(F)F)cc2)[C@@H](C(=O)Nc2cccc(F)[n+]2[O-])C1=O (racemic) [Compound 1814] for me?
0

Can you look up the measured pest or weed control at 15.625 g/ha of CN1C[C@@H](c2ccc(C(F)(F)F)cc2)[C@H](C(=O)Nc2cc(C(F)(F)F)no2)C1=O (racemic) [Compound 1511] for me?
0

Can you look up the measured pest or weed control at 15.625 g/ha of C#Cc1ccccc1NC(=O)[C@H]1C(=O)N(C)C[C@@H]1c1ccc(C(F)(F)F)cc1 (racemic) [Compound 1422] for me?
0

Can you look up the measured pest or weed control at 15.625 g/ha of Cc1c(F)cccc1NC(=O)[C@@H]1C(=O)N(C)C[C@H]1c1ccnc(OCC(F)(F)F)c1 (racemic) [Compound 1802] for me?
0

Can you look up the measured pest or weed control at 15.625 g/ha of CC(C)c1cc(NC(=O)[C@@H]2C(=O)N(C)C[C@H]2c2ccc(C(F)(F)F)cc2)[nH]n1 (racemic) [Compound 1522] for me?
0

* * *

Tested on: giant foxtail (Setaria faberi)
measurement protocol: Test G Pre-Emergence Protocol
Type: in vivo
test context: Setaria faberi, pre-emergence, 312 h, 62.5 g ai/ha, evaluated after 13 days, 100=total damage to plant, 0=no damage to plant, read-out: plant damage rating, Foxtail, Giant
measurement kind: pest or weed control at 62.5 g/ha (%)
Reply with just the number (in %).

// below: answered compounds
{"compound": "CN1C[C@@H](c2ccc(C(F)(F)F)cc2)[C@H](C(=O)Nc2cc(C(C)(C)C)[nH]n2)C1=O (racemic)", "measurement kind": "pest or weed control at 62.5 g/ha", "observed result": 0}
{"compound": "CN1C[C@@H](c2ccc(C(F)(F)F)cc2)[C@H](C(=O)Nc2ccccc2C#N)C1=O (racemic)", "measurement kind": "pest or weed control at 62.5 g/ha", "observed result": 60}
{"compound": "CN1C[C@H](c2ccc(C(F)(F)F)cc2)[C@@H](C(=O)Nc2cccc3nsnc23)C1=O (racemic)", "measurement kind": "pest or weed control at 62.5 g/ha", "observed result": 50}
{"compound": "CN1C[C@@H](c2ccc(C(F)(F)F)cc2)[C@H](C(=O)Nc2ccn[nH]2)C1=O (racemic)", "measurement kind": "pest or weed control at 62.5 g/ha", "observed result": 0}
{"compound": "CN1C[C@H](c2ccc(C(F)F)cc2)[C@@H](C(=O)Nc2ccccc2F)C1=O (racemic)", "measurement kind": "pest or weed control at 62.5 g/ha", "observed result": 70}

Can you look up the measured pest or weed control at 62.5 g/ha of C[C@@]1(C(=O)Nc2cccc(F)c2F)C(=O)NC[C@@H]1c1ccc(C(F)(F)F)cc1 (racemic) for me?
0

Can you look up the measured pest or weed control at 62.5 g/ha of CN1C[C@@H](c2ccc(C(F)(F)F)cc2)[C@H](C(=O)Nc2ncc(Cl)s2)C1=O (racemic) for me?
0

Can you look up the measured pest or weed control at 62.5 g/ha of CSc1nc(NC(=O)[C@@H]2C(=O)N(C)C[C@H]2c2ccc(C(F)(F)F)cc2)n[nH]1 (racemic) for me?
10
